Biological target: T1, human IL-1RAcP on 293T/17-FR cells (human, UniProt Q9NPH3 21-570)
T1 sequence (looked up): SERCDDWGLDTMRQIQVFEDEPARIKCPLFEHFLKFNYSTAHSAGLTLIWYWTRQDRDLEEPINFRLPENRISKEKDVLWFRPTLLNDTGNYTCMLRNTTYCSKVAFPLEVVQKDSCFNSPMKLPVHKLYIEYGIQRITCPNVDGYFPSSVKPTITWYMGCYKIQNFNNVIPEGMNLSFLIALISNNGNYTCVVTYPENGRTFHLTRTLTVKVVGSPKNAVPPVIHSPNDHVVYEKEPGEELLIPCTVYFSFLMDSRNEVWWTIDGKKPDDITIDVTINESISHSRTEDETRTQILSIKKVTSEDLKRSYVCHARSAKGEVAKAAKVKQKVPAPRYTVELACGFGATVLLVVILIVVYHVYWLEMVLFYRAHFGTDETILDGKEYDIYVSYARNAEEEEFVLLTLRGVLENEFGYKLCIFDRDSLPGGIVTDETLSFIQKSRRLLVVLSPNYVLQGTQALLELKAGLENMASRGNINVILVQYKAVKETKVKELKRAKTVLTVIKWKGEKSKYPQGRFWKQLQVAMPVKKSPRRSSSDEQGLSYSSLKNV
Test: cell-based or functional assay
// functional reporter gene assay (% inhibition), 0.04 µg/mL mAb lookup, one value per entry
outcome.measure: functional reporter gene assay (% inhibition), 0.04 µg/mL mAb (%)

>  <binder>
P013.S.02.B.E02 (antibody, V domains shown, rabbit monoclonal antibody; also called P013.A.00087.E09) VH: QSVEESGGRLVTPGTPLTLTCTVSGFSLNVYNMGWVRQAPGKGLEYIGIISSSGTTYYASWAKGRFTISKTSSTTVDLKITSLTTEDTATYFCARADGYTEGDYATYFNLWGQGTLVTVSS VL: DIVMTQTPASVSEPVGGTVTIKCQASQSITTWLAWYQQKPGQPPKLLIYQASALASGVSSRFIGSGYGTEFTLTISGVQSEDAATYYCQCTYGIGSGSSYGVAFGGGTEVVVK

>  <units.symbol>
%

>  <value>
0

$$$$
>  <binder>
P013.S.02.B.B02 (antibody, V domains shown, rabbit monoclonal antibody; also called P013.A.00045.H10) VH: LAQSGGGAEGGLVKPGGSLELCCEASGFSLSSSYWICWVRQAPGKGLEWIGCIYTGSSGNTYYASWVNGRFTLSRDIDRSTGCLQLNSLTAADTAMYYCARDANSHYMMNLWGQGTLVTVSS VL: ALVMTQTPSPVSAAVGGTVTINCQASEDIYSNLAWFQQKPGQPPKLLIYDASTLASGVPSRFSGSGSGTEFTLTISGLQSDDAATYYCLGVYTYISADGTLVYNAFGGGTEVVVR

>  <units.symbol>
%

>  <value>
26

$$$$
>  <binder>
P013.S.01.B.B04 (antibody, V domains shown, rabbit monoclonal antibody; also called P013.A.00086.E02) VH: QSVEESGGRLVTPGTPLTLTCTVSGIDLDNYAMGWVRQAPGKGLEYIGVISSDGFFYDASWAKGRFTISKASSTTVDLKMTGLTPEDTATYFCARDRGTSTGSLDLWGQGTLVTVSS VL: ALVMTQTPASVSEPVGGTVTIKCQASENIGNGLAWYQQKPGQPPNLLIYGASTLASGVPSRFSGSGYGTEFTLTVSDLESGDAATYYCQCTYWNPDYIGGAFGGGTEVVVT

>  <units.symbol>
%

>  <value>
42

$$$$
